# inhibition values compiled below
System: transactivating tegument protein VP16 (Human herpesvirus 1)
ASSAY_EXPLANATION: VP16 transactivation reporter inhibitors, counter-screen for SRC2 inhibitor project, cell-based, luminescence, single concentration (AID 652007)
RUN_PARAMETERS: cell-based VP16 transactivation luciferase reporter, at 8.9 µM, stronger effect = higher value
Give a bare numeral; the unit % is implied.

Please review the entries below; each comes with its answer.
CCN(CC)C(=O)C1CCCN(c2ncnc3c2cnn3-c2ccc(Cl)cc2)C1 (stereo not drawn) ... -32.6
O=C(CCCSc1nc2ccccc2s1)NC1=NCCS1 ... 27.1
COc1cc(C#Cc2c(-c3cncn3C)n(C)c3ccc(-c4ccc(OC)nc4)cc23)cc(OC)c1 ... -13.2
CCOC(=O)Cc1ccc(NC(=O)c2ccc(C(C)(C)C)cc2)cc1 ... -47.1
CCOC(=O)c1c(C)nn(-c2ccc(NC(=O)c3c(C)noc3C)cc2)c1C ... 11.6

Enquiry: Answer with reported inhibition of `O=C1N(c2ccccc2)C[C@@H]2C[C@@H](c3cc4ccccc4o3)N3CCC[C@@]123`
Return: 47.8

Enquiry: Answer with reported inhibition of `Cc1ccc(C(=O)O/N=C(\N)c2ccccn2)cc1C`
Return: -29.9

---

ASSAY_EXPLANATION: VP16 transactivation reporter inhibitors, counter-screen for LRH-1 inverse agonist project, cell-based, luminescence, high throughput (AID 651615)
RUN_PARAMETERS: Gal4-VP16 luciferase reporter cells, at 3.6 µM, stronger effect = higher value
QUANTITY_KIND: inhibition (%)
Give a bare numeral; the unit % is implied.

O=[N+]([O-])c1ccc(/C=N/n2c(CO)nc3ccccc32)s1 ... 2.51
CCOc1ccc(-c2c[n+]3c(n2-c2ccccc2)CCCCC3)cc1 ... 66.9
Cn1ncc(Cl)c1C(=O)NCc1ccc2c(c1)OCO2 ... 15.7
Cc1ccc(Cn2cnc3ccccc32)cc1C ... 7.91
CSc1ccc(COC(=O)c2cc([N+](=O)[O-])ccc2N2CCOCC2)cc1 ... 36.6
Cc1c(OCC(=O)NCCCN2CCOCC2)ccc2c(-c3ccccc3)cc(=O)oc12 ... 5.76

Enquiry: Answer with reported inhibition of `NS(=O)(=O)c1ccc(CCNC(=O)COc2ccc3c4c(c(=O)oc3c2)CCC4)cc1`
Return: -15.4

Enquiry: Answer with reported inhibition of `CC(=O)CSc1nc(N)c(C#N)c(-c2cccs2)c1C#N`
Return: 35

---

ASSAY_EXPLANATION: beta-lactamase reporter inhibitors in CHO cells, confirmation, artefact control for NOD2-RIPK2 interaction inhibitor project, cell-based, CHO-K1 CMV-bla, CCF4 FRET, fluorescence (AID 624371);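 also: 0% = DMSO only wells and 100% = clavulanate high control wells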
RUN_PARAMETERS: CCF4 FRET ratio, counterscreen, at 4.98 µM, stronger effect = higher value
The list shows a part of the results. Calls of active or inactive are those of the source.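 The calls were made as follows: active = mean inhibition above the low-control mean inhibition plus three low-control SD (cut at about 11% in these data); inactive = the rest.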
QUANTITY_KIND: inhibition

O=C(O)c1ccc2c(c1)C(=O)N(c1ccc(/C=C/C(=O)c3ccccc3)cc1)C2=O ... 0.39% (inactive)
CCCc1ccc(-c2csc(NC(=O)Cc3cccs3)n2)cc1 ... 31.1% (active)
CC(C)(C)OC(=O)N1CCC(NC(=O)c2[nH]cnc2C(=O)N[C@@H](Cc2ccccc2)C(=O)OCc2ccccc2)CC1 ... -4.79% (inactive)

Enquiry: Answer with reported inhibition of `COc1ccc(-c2cc(C(F)(F)F)nc(S(C)(=O)=O)n2)cc1OC`
Return: 14.4% (active)

Enquiry: Answer with reported inhibition of `O=C(Nc1ccccc1)c1nnsc1S(=O)(=O)c1ccc(Cl)cc1`
Return: 10.3% (inactive)

Enquiry: Answer with reported inhibition of `O=C1/C(=C\c2ccc([N+](=O)[O-])cc2)CS(=O)(=O)C/C1=C/c1ccc([N+](=O)[O-])cc1`
Return: 4.33% (inactive)

Enquiry: Answer with reported inhibition of `CN1CCN(/N=C/c2ccc(-c3ccc([N+](=O)[O-])cc3)o2)CC1`
Return: 23.5% (active)

Enquiry: Answer with reported inhibition of `Cc1cccc(NC(=O)c2nc(S(=O)(=O)Cc3ccccc3)ncc2Cl)c1`
Return: 43.9% (active)

Enquiry: Answer with reported inhibition of `Cc1cccc(COc2ccccc2/C=N/Nc2ccc([N+](=O)[O-])cc2)c1`
Return: 50.4% (active)

Enquiry: Answer with reported inhibition of `O=[N+]([O-])/C=C/c1ccc2c(ccn2Cc2ccccc2)c1`
Return: 7.27% (inactive)
